Test system: NCI-H226 lung
Assay: NCI tumour cell line growth inhibition, 48 h
Rule: T for TGI not less than 30 µM, F for anything less.

[in] Would you say Nc1nc(N)c(CCCCc2ccc([N+](=O)[O-])cc2)c(N)n1 shows TGI at minimum 30 µM?
[out] T

[in] Item CN(CCNC(=O)c1nn(C)c2c1Cc1ccccc1-2)CCNC(=O)c1nn(C)c2c1Cc1ccccc1-2 with TGI of 30 µM or above?
[out] T

[in] I'd appreciate it if you could say whether O=C1c2cccc3cc([N+](=O)[O-])cc(c23)C(=O)N1c1ccc(OCCN2CCCC2)cc1 has TGI at least equal to 30 µM.
[out] F

[in] Determine whether measured TGI meets or exceeds 30 µM for N#Cc1cnn(C(=O)c2nn(-c3ccc(Cl)cc3)cc2O)c1N
[out] F

[in] State whether the measured TGI reaches 30 µM, counting equality as reaching it, for CC1=C(\C=C/C(C)=C/C=C/C(C)=C/C=C/C=C(C)\C=C\C=C(C)/C=C/C2=C(C)CCCC2(C)C)C(C)(C)CCC1
[out] T

[in] Would you say CC(=O)OC1(C(C)=O)CC2(c3ccccc3)OC1(c1ccccc1)c1ccccc12 (centres undefined) shows TGI at minimum 30 µM?
[out] T

[in] Quick check, TGI >= 30 µM? COC(=O)CC(=O)OC1C[C@@H]2CCC3C(C)(C)CCC[C@]3(C)C23CC[C@@]1(C)C3 (some centres undefined)
[out] T

[in] State whether the measured TGI reaches 30 µM, counting equality as reaching it, for CNC(=O)OC1/C(C)=C\C(C)C(O)C(OC)CC(C)CC2=C(OC)C(=O)C=C(C2=O)N(C)C(=O)/C(C)=C/C=C\C1OC (centres undefined)
[out] T

[in] Is reported TGI greater than or equal to 30 µM here: C=CC[PH+](c1ccccc1)c1ccccc1.C=CC[PH+](c1ccccc1)c1ccccc1.[Pt+2].[S-]c1nc2ccccc2[nH]1.[S-]c1nc2ccccc2[nH]1
[out] F

[in] # check: TGI of CN(N=O)c1ccc(/C=C/c2ccnc3ccccc23)cc1 is greater than or equal to 30 µM
[out] T

[in] Evaluate CC(C)C(Sc1nc(N)nc2nc[nH]c12)C(=O)O (centres undefined) : TGI at minimum 30 µM?
[out] T

[in] Given the entry COc1cc(C(=O)/C=C/c2c[nH]c3ccccc23)cc(OC)c1OC , answer whether its TGI meets or surpasses 30 µM.
[out] F

[in] In plain terms: is recorded TGI at least 30 µM for CCCC(O)c1ccc2[nH]c3c(C)cc([N+](=O)[O-])c(C)c3c2c1 (centres undefined) ?
[out] T

[in] Entry O=C(CC1(O)C(=O)Nc2ccc(Cl)cc21)c1ccc(C(=O)NCC2CCC3(CC2)OOC2(CCCCC2)OO3)cc1 (centres undefined) : is its TGI no less than 30 µM?
[out] T

[in] Hi, just wondering whether O=S(c1ccc(O)cc1)c1ccc(O)cc1 shows TGI of 30 µM or higher.
[out] T

[in] Given CSCSCC(CO)NC(=O)/C=C/c1c(C)[nH]c(=O)[nH]c1=O (centres undefined) , state whether its TGI is at least 30 µM.
[out] T

[in] TGI >= 30 µM for CCn1c(=O)c2nc(SC)sc2n(-c2ccccc2)c1=S ?
[out] T
